- Test: MTT cell viability assay, compounds at 5, 1 and 0.2 μM, 48 hours
- Type: cell-based
- Experimental context: human, A549 tumor cells, 5 μM
Readout kind: viability at 48 h, 5 µM

INSERT INTO results (smiles_notation, readout_kind, val) VALUES
  ('Nc1cc(Oc2ccc(-c3nnc(Nc4cccc(C(F)(F)F)c4)[nH]3)cc2)ncn1', 'viability at 48 h, 5 µM', '> 70%'),
  ('CCOc1nc(N)cc(Oc2ccc(-c3nnc(Nc4cccc(C(F)(F)F)c4)[nH]3)cc2)n1', 'viability at 48 h, 5 µM', '< 50%'),
  ('CCc1nc(N)cc(Oc2cccc(-c3nnc(Nc4cccc(C(F)(F)F)c4)[nH]3)c2)n1', 'viability at 48 h, 5 µM', '50 to 70%'),
  ('CSc1nc(N)cc(Oc2ccc(-c3nnc(Nc4cc(C)ccc4C)[nH]3)cc2)n1', 'viability at 48 h, 5 µM', '< 50%');

====

- Test: MTT cell viability assay, compounds at 5, 1 and 0.2 μM, 48 hours
- Format: cell-based
- Experimental context: human, A549 tumor cells, 1 μM
Measured viability at 48 h, 1 µM, listed per entry for reference.
Readout kind: viability at 48 h, 1 µM

INSERT INTO results (smiles_notation, val) VALUES
  ('COc1cc(-c2nnc(Nc3cccc(C(F)(F)F)c3)[nH]2)ccc1Oc1cc(N)nc(SC)n1', '> 70%'),
  ('O=[N+]([O-])c1cc(F)cc(Oc2ccc(-c3nnc(Nc4cccc(C(F)(F)F)c4)[nH]3)cc2)c1', '> 70%'),
  ('CSc1nc(N)cc(Oc2ccc(-c3nnc(Nc4cc(C)ccc4C)[nH]3)cc2)n1', '< 50%'),
  ('COc1nc(Oc2ccc(-c3nnc(Nc4cccc(C(F)(F)F)c4)[nH]3)cc2)c2cc[nH]c2n1', '> 70%'),
  ('O=c1cc(COc2ccc(-c3nnc(Nc4cccc(C(F)(F)F)c4)[nH]3)cc2)c2ccccc2[nH]1', '50 to 70%'),
  ('FC(F)(F)c1cccc(Nc2nnc(-c3ccc(Oc4ccncc4)cc3)[nH]2)c1', '50 to 70%'),
  ('FC(F)(F)c1cccc(Nc2nnc(-c3ccc(Oc4ccnc5cc(C(F)(F)F)ccc45)cc3)[nH]2)c1', '> 70%');

====

Measured viability at 48 h, 1 µM, listed per entry for reference.
- Test: MTT cell viability assay, compounds at 5, 1 and 0.2 μM, 48 hours
- Type: cell-based
- Experimental context: human, A549 tumor cells, 1 μM
Readout kind: viability at 48 h, 1 µM

INSERT INTO results (smiles_notation, val) VALUES
  ('FC(F)(F)c1cccc(Nc2nnc(-c3cccc(Oc4ccncc4)c3)o2)c1', '> 70%'),
  ('CSc1nc(N)cc(Oc2ccc(-c3nnc(Nc4cccc5c4CCCC5)[nH]3)cc2)n1', '< 50%'),
  ('CCc1nc(N)cc(Oc2ccc(-c3nnc(Nc4cccc(C(F)(F)F)c4)[nH]3)cc2)n1', '50 to 70%'),
  ('CC(C)(C)Sc1cc(Oc2ccc(-c3nnc(Nc4cccc(C(F)(F)F)c4)[nH]3)cc2)nc(N)n1', '> 70%'),
  ('COc1ccc2c(Oc3ccc(Nc4nnc(-c5cccc(C(F)(F)F)c5)[nH]4)cc3)ccnc2c1', '> 70%'),
  ('FC(F)(F)c1cccc(Nc2nnc(-c3cccc(Oc4ccnc5cc(C(F)(F)F)ccc45)c3)[nH]2)c1', '> 70%'),
  ('COC(=O)c1cccc(Nc2nnc(-c3ccc(Oc4cc(N)nc(SC)n4)cc3)[nH]2)c1', '> 70%'),
  ('Nc1cc(Oc2ccc(-c3nnc(Nc4cccc(C(F)(F)F)c4)[nH]3)cc2)nc(Sc2ccccn2)n1', '> 70%');

====

- Test: MTT cell viability assay, compounds at 5, 1 and 0.2 μM, 48 hours
- Type: cell-based
- Experimental context: human, A549 tumor cells, 5 μM
Readout kind: viability at 48 h, 5 µM

INSERT INTO assay_data (compound, readout_kind, val) VALUES
  ('FC(F)(F)c1cccc(Nc2nnc(-c3ccc(Oc4ccnc(Cl)c4)cc3)o2)c1 [Compound 30]', 'viability at 48 h, 5 µM', '50 to 70%'),
  ('COCCOc1nc(N)cc(Oc2ccc(-c3nnc(Nc4cccc(C(F)(F)F)c4)[nH]3)cc2)n1 [Compound 78]', 'viability at 48 h, 5 µM', '< 50%'),
  ('Cc1cc(Oc2cccc(-c3nnc(Nc4cccc(C(F)(F)F)c4)[nH]3)c2)nc(N)n1 [Compound 54]', 'viability at 48 h, 5 µM', '< 50%');

====

- Test: MTT cell viability assay, compounds at 5, 1 and 0.2 μM, 48 hours
- Format: cell-based
- Experimental context: human, A549 tumor cells, 5 μM
Readout kind: viability at 48 h, 5 µM

INSERT INTO assay_data (compound, val) VALUES
  ('CCOc1cc(Oc2cccc(-c3nnc(Nc4cccc(C(F)(F)F)c4)[nH]3)c2)nc(N)n1 [Compound 57]', '> 70%'),
  ('FC(F)(F)c1cccc(Nc2nnc(-c3ccc(Oc4ccnc5cc(OCc6ccccc6)ccc45)cc3)[nH]2)c1 [Compound 187]', '> 70%'),
  ('COc1ccc2c(Oc3ccc(-c4nnc(Nc5cccc(C(F)(F)F)c5)s4)cc3)ccnc2c1 [Compound 46]', '< 50%'),
  ('N#Cc1ccc2c(Oc3ccc(-c4nnc(Nc5cccc(C(F)(F)F)c5)[nH]4)cc3)ccnc2c1 [Compound 189]', '> 70%'),
  ('Nc1cc(Oc2ccc(-c3nnc(Nc4cccc(C(F)(F)F)c4)[nH]3)cc2)ccn1 [Compound 4]', '50 to 70%'),
  ('CSc1nc(N)cc(Oc2ccc(-c3nnc(Nc4cccc(C(=O)O)c4)[nH]3)cc2)n1 [Compound 153]', '> 70%'),
  ('O=c1cc(COc2ccc(-c3nnc(Nc4cccc(C(F)(F)F)c4)[nH]3)cc2)c2ccccc2[nH]1 [Compound 161]', '< 50%'),
  ('CCOc1nc(N)cc(Oc2cccc(-c3nnc(Nc4cccc(C(F)(F)F)c4)[nH]3)c2)n1 [Compound 97]', '> 70%'),
  ('CSc1nc(N)cc(Oc2ccc(-c3nnc(Nc4cccc(Cl)c4)[nH]3)cc2)n1 [Compound 133]', '< 50%'),
  ('Nc1cc(Oc2ccc(-c3nnc(Nc4cccc(C(F)(F)F)c4)o3)cc2)ccn1 [Compound 59]', '> 70%'),
  ('Nc1cc(Oc2ccc(-c3nnc(Nc4cccc(C(F)(F)F)c4)[nH]3)cc2)nc(Sc2ccccn2)n1 [Compound 152]', '> 70%'),
  ('COC(=O)c1cccc(Nc2nnc(-c3ccc(Oc4cc(N)nc(SC)n4)cc3)[nH]2)c1 [Compound 138]', '< 50%'),
  ('CSc1nc(N)cc(Oc2ccc(-c3nnc(Nc4cccc(CC#N)c4)[nH]3)cc2)n1 [Compound 130]', '< 50%'),
  ('NS(=O)(=O)c1cnccc1Oc1cccc(-c2nnc(Nc3cccc(C(F)(F)F)c3)[nH]2)c1 [Compound 19]', '> 70%'),
  ('Nc1nc(OCC2CC2)cc(Oc2ccc(-c3nnc(Nc4cccc(C(F)(F)F)c4)[nH]3)cc2)n1 [Compound 84]', '> 70%'),
  ('Nc1cc(Oc2ccc(-c3nnc(Nc4cccc(C(F)(F)F)c4)[nH]3)cc2)nc(SCC(=O)O)n1 [Compound 116]', '> 70%'),
  ('FC(F)(F)c1cccc(Nc2nnc(-c3ccc(OCc4ccncc4)cc3)[nH]2)c1 [Compound 143]', '> 70%'),
  ('FC(F)(F)c1cccc(Nc2nnc(-c3cccc(Oc4cc(C(F)(F)F)nc5ccccc45)c3)[nH]2)c1 [Compound 169]', '> 70%');

====

- Test: MTT cell viability assay, compounds at 5, 1 and 0.2 μM, 48 hours
- Assay type: cell-based
- Experimental context: human, A549 tumor cells, 5 μM
Readout kind: viability at 48 h, 5 µM

INSERT INTO results (compound, readout_kind, val) VALUES
  ('CSc1nc(N)cc(Oc2ccc(-c3nnc(Nc4ccc5c(c4)-c4ccccc4C5)[nH]3)cc2)n1 [Compound 136]', 'viability at 48 h, 5 µM', '< 50%'),
  ('Cc1nc(N)cc(Oc2cccc(-c3nnc(Nc4cccc(C(F)(F)F)c4)[nH]3)c2)n1 [Compound 100]', 'viability at 48 h, 5 µM', '> 70%'),
  ('CSc1nc(N)cc(Oc2ccc(-c3nnc(Nc4cccc(C(F)(F)F)c4)[nH]3)cc2Cl)n1 [Compound 104]', 'viability at 48 h, 5 µM', '< 50%'),
  ('CSc1nc(N)cc(Oc2ccc(-c3nnc(Nc4cccc5c4CCCC5)[nH]3)cc2)n1 [Compound 135]', 'viability at 48 h, 5 µM', '< 50%'),
  ('CSc1nc(N)cc(Oc2ccc(-c3nnc(Nc4cccc(C(F)(F)F)c4)[nH]3)c(Cl)c2)n1 [Compound 112]', 'viability at 48 h, 5 µM', '> 70%'),
  ('Cc1cc(Oc2ccc(-c3nnc(Nc4cccc(C(F)(F)F)c4)[nH]3)cc2)ccn1 [Compound 74]', 'viability at 48 h, 5 µM', '< 50%'),
  ('COc1cc(Oc2ccc(-c3nnc(Nc4cccc(C(F)(F)F)c4)[nH]3)cc2)ccn1 [Compound 73]', 'viability at 48 h, 5 µM', '< 50%'),
  ('COc1cc(Oc2ccc(-c3nnc(Nc4cccc(C(F)(F)F)c4)[nH]3)cc2)ncn1 [Compound 76]', 'viability at 48 h, 5 µM', '50 to 70%'),
  ('CSc1nc(N)cc(Oc2ccc(-c3nnc(Nc4cc(C)ccc4F)[nH]3)cc2)n1 [Compound 121]', 'viability at 48 h, 5 µM', '< 50%'),
  ('CSc1nc(Oc2ccc(-c3nnc(Nc4cccc(C(F)(F)F)c4)[nH]3)cc2)c2cc[nH]c2n1 [Compound 9]', 'viability at 48 h, 5 µM', '> 70%'),
  ('CSc1nc(N)cc(Oc2ccc(-c3nnc(Nc4cc(C(C)(C)C)n[nH]4)[nH]3)cc2)n1 [Compound 132]', 'viability at 48 h, 5 µM', '< 50%'),
  ('FC(F)(F)c1cccc(Nc2nnc(-c3cccc(Oc4cncc5ccccc45)c3)[nH]2)c1 [Compound 164]', 'viability at 48 h, 5 µM', '50 to 70%'),
  ('FC(F)(F)c1cccc(-c2nnc(Nc3ccc(Oc4cccnc4)cc3)[nH]2)c1 [Compound 174]', 'viability at 48 h, 5 µM', '> 70%'),
  ('FC(F)(F)c1cccc(Nc2nnc(-c3cccc(Oc4ccnc5ccccc45)c3)o2)c1 [Compound 42]', 'viability at 48 h, 5 µM', '> 70%'),
  ('CCc1cc(Oc2ccc(-c3nnc(Nc4cccc(C(F)(F)F)c4)[nH]3)cc2)nc(N)n1 [Compound 77]', 'viability at 48 h, 5 µM', '50 to 70%'),
  ('FC(F)(F)c1cccc(Nc2nnc(-c3cccc(Oc4ccnc5cc(C(F)(F)F)ccc45)c3)[nH]2)c1 [Compound 165]', 'viability at 48 h, 5 µM', '> 70%'),
  ('Nc1cc(Oc2cccc(-c3nnc(Nc4cccc(C(F)(F)F)c4)[nH]3)c2)nc(N)n1 [Compound 13]', 'viability at 48 h, 5 µM', '50 to 70%'),
  ('COc1ccc2c(Oc3cccc(-c4nnc(Nc5cccc(C(F)(F)F)c5)s4)c3)ccnc2c1 [Compound 49]', 'viability at 48 h, 5 µM', '50 to 70%'),
  ('FC(F)(F)c1cccc(Nc2nnc(-c3ccc(Oc4ccnc5ccccc45)cc3)o2)c1 [Compound 34]', 'viability at 48 h, 5 µM', '> 70%'),
  ('FC(F)(F)c1cccc(Nc2nnc(-c3ccc(Oc4ccncc4)cc3)[nH]2)c1 [Compound 3]', 'viability at 48 h, 5 µM', '< 50%'),
  ('CSc1nc(N)cc(Oc2ccc(-c3nnc(Nc4ccccc4Cl)[nH]3)cc2)n1 [Compound 140]', 'viability at 48 h, 5 µM', '50 to 70%'),
  ('COc1nc(Oc2ccc(-c3nnc(Nc4cccc(C(F)(F)F)c4)[nH]3)cc2)c2cc[nH]c2n1 [Compound 75]', 'viability at 48 h, 5 µM', '> 70%'),
  ('COc1ccc2c(Oc3ccc(-c4nnc(Nc5cccc(C(F)(F)F)c5)[nH]4)cc3)cc(C)nc2c1 [Compound 188]', 'viability at 48 h, 5 µM', '> 70%'),
  ('COc1nc(N)cc(Oc2cccc(-c3nnc(Nc4cccc(C(F)(F)F)c4)[nH]3)c2)n1 [Compound 89]', 'viability at 48 h, 5 µM', '> 70%'),
  ('FC(F)(F)c1cccc(Nc2nnc(-c3ccc(Oc4ccncc4)cc3Cl)[nH]2)c1 [Compound 111]', 'viability at 48 h, 5 µM', '> 70%'),
  ('Cc1nccc(Oc2ccc(-c3nnc(Nc4cccc(C(F)(F)F)c4)[nH]3)cc2)n1 [Compound 51]', 'viability at 48 h, 5 µM', '< 50%');

Attribution: patent US9212151B2
